- RUN PARAMETERS: 313.15 K, Drop volume
Use Fulfilled when the recorded surface tension liquid-gas is no lower than 40 mN/m; use Not fulfilled when it is lower.

COMPOUND | GROUP
CCCC[n+]1ccccc1.F[B-](F)(F)F [1-butylpyridinium tetrafluoroborate] | Fulfilled
CCO | Not fulfilled
CCCC[n+]1ccc(C)cc1.F[B-](F)(F)F [1-butyl-4-methylpyridinium tetrafluoroborate] | Fulfilled
CCC[n+]1ccccc1.F[B-](F)(F)F [1-propylpyridinium tetrafluoroborate] | Fulfilled
CCCC[n+]1cccc(C)c1.F[B-](F)(F)F [1-butyl-3-methylpyridinium tetrafluoroborate] | Fulfilled

Note: attention shifts to another entry.
Could you tell me if the measured surface tension liquid-gas of CO reaches 40 mN/m or more?
Not fulfilled
